# study-system: T1, human plasma kallikrein (human, UniProt P03952 20-390; P03952 391-638)
# T1 construct: two disulfide-linked chains; NP_000883.2; also called pKal; hpKal
# T1 sequence (P03952 20-390 limits assumed, chain 1 of 2): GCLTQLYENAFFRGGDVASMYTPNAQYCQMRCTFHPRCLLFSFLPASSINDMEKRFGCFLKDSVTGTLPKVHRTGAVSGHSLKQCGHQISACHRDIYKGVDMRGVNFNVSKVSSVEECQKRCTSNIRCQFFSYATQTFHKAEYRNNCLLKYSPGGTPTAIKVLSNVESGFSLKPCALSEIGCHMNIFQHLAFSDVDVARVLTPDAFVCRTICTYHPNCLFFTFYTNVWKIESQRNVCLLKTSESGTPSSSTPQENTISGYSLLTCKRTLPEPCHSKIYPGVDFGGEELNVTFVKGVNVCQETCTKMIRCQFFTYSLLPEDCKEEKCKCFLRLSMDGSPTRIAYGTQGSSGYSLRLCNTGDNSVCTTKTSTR
# T1 sequence (P03952 391-638 limits assumed, chain 2 of 2): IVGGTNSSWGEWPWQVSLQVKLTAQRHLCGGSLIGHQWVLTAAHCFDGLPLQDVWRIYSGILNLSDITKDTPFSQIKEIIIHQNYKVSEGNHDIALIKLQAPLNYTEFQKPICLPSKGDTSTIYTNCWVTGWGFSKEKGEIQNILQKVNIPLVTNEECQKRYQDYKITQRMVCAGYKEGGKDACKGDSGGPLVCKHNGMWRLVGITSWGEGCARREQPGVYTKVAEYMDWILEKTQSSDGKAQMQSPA
# run-description: ELISA, biotinylated pKal signal over streptavidin background
Kindly supply the reported ELISA (T/B) values for the records listed here.
Give bare numbers.

Need ELISA (T/B) for each of these binders.
1. M28-E11 (Fab, V domains shown) VH: EVQLLESGGGLVQPGGSLRLSCAASGFTFSLYDMTWVRQAPGKGLEWVSGISSSGGVTIYADSVKGRFTISRDNSKNTLYLQMNSLRAEDTAVYYCARTYYYDSSGYADAFDIWGQGTMVTVSS VL: DIQMTQSPSSVSASVGDRVTINCRASQDISNWLAWYQQKPGKAPNLLIYAASSLQTGAPSRFSGSGSGTDFTLTISSLQPEDFGTYVCQQSYSLPWTFGLGTKVEVR
2. M9-H02 (Fab, V domains shown) VH: EVQLLESGGGLVQPGGSLRLSCAASGFTFSAYMMIWVRQAPGKGLEWVSVIYPSGGVTMYADSVKGRFTISRDNSKNTLYLQMNSLRAEDTAVYYCARGTVGASDAFDIWGQGTMVTVSS VL: DIQMTQSPSSLSASVGDRVIITCRASRSIATYLNWYQQKPGKAPNLLIFGASTLQSGVPSRFSGSGSGTDFTLTISDLQPEDFATYYCQQSFSDPYTFGQGTNLEMK
3. M9-D08 (Fab, V domains shown) VH: EVQLLESGGGLVQPGGSLRLSCAASGFTFSWYKMMWVRQAPGKGLEWVSSIYPSGGWTNYADSVKGRFTISRDNSKNTLYLQMNSLRAEDTAVYYCTRGSPWGDDAFDIWGQGTMVTVSS VL: DIQMTQSPSSLSASVGDRVTLTCRASRTISFYLNWYQQKAGKAPELLIYGGSSLHSGVPSRFSGSGSGTDFSLTISNLQPEDIAVYYCQQSFSSPWTFGQGTKVEIK

Solution:
29.3
3.5
35.9
